# caspase activation per record follows
# testName: A1 inhibitors via caspase activation, primary screen, cell-based, luminescence, HTS, two replicates (AID 2465)
# testConditions: MEF A1-2A-BIM cells, caspase-Glo luminescence, 3 h; stronger effect = higher value; percent of clofoctol response, DMSO zero; concentration not given here
The whole screen tested about 24,000 compounds, of which fewer than 10 were called active. A selection follows.

// known answers, use as guide
C[C@@H]1CCCCO[C@@H](CN(C)S(=O)(=O)c2ccccc2)[C@H](C)CN([C@H](C)CO)C(=O)c2cc(NC(=O)Nc3ccc4c(c3)OCO4)ccc2O1 ... -1.23% (inactive)
Cc1noc(C)c1NC(=O)Nc1ccc2c(c1)CC(=O)N([C@@H](C)CO)C[C@H](C)[C@H](CN(C)S(=O)(=O)c1c(C)noc1C)O2 ... -0.264% (inactive)
CCOc1cccc(/C=N/NC(=O)CCCCCC(=O)Nc2ccccc2O)c1OCC ... -0.952% (inactive)

Let's switch to this compound now.
Lab note: measured caspase activation of C[C@@H]1CCCCO[C@H](CN(C)CC2CC2)[C@@H](C)CN([C@H](C)CO)C(=O)c2cc(NC(=O)Nc3ccc(F)cc3)ccc2O1 was -0.194% (inactive)

###

Measured caspase activation of individual entries
# testName: A1 inhibitors via caspase activation, primary screen, cell-based, luminescence, HTS, two replicates (AID 2465)
# testConditions: MEF A1-2A-BIM cells, caspase-Glo luminescence, 3 h; stronger effect = higher value; percent of clofoctol response, DMSO zero; concentration not given here
Out of some 24,000 compounds screened, fewer than 10 were called active. Not all results are given here.
Express your answer in %, writing the number without its unit.

Before answering, review these 5 worked examples.
C[C@@H]1CCCCO[C@@H](CN(C)Cc2ccccc2)[C@H](C)CN([C@H](C)CO)C(=O)c2cc(NC(=O)Nc3cccc4ccccc34)ccc2O1 ... 1.29
O=C(NO)c1cccc(C(=O)N/N=C/c2cc(Br)c(O)c(Br)c2)c1 ... 0.169
O=C(NO)c1cccc(C(=O)N/N=C/c2c[nH]c3ccccc23)c1 ... -1.04
C[C@@H]1CCCCO[C@@H](CN(C)Cc2ccc(Cl)c(Cl)c2)[C@H](C)CN([C@@H](C)CO)C(=O)c2cc(NS(C)(=O)=O)ccc2O1 ... -0.491
CNC[C@@H]1Oc2ccc(NC(=O)C3CCCCC3)cc2CC(=O)N([C@@H](C)CO)C[C@H]1C ... -2

Record Cc1ccc(S(=O)(=O)Nc2ccc3c(c2)C(=O)N([C@H](C)CO)C[C@H](C)[C@@H](CN(C)Cc2ccccc2)OCCCC[C@H](C)O3)cc1 , field caspase activation: -0.556

The measured caspase activation associated with C[C@@H]1CN([C@H](C)CO)C(=O)c2cc(NC(=O)C3CCCCC3)ccc2O[C@H]1CN(C)C(=O)Nc1ccccc1 reads -0.382

Reported caspase activation ( C[C@H]1CCCCO[C@H](CN(C)C(=O)Nc2ccc3c(c2)OCO3)[C@@H](C)CN([C@@H](C)CO)C(=O)c2cc(NC(=O)Nc3ccccc3)ccc2O1 ) = 0.0515

Value of measured caspase activation for the entry C[C@H]1CN([C@@H](C)CO)C(=O)CCCn2cc(nn2)CO[C@@H]1CN(C)S(=O)(=O)c1ccccc1C#N : 0.483

Documented caspase activation of CC(C)NC(=O)Nc1ccc2c(c1)C(=O)N([C@H](C)CO)C[C@H](C)[C@@H](CN(C)Cc1ccc3c(c1)OCO3)OCCCC[C@H](C)O2 : -0.756

Measured caspase activation, COc1ccc(NC(=O)N(C)C[C@@H]2Oc3ccc(NC(=O)CCN4CCOCC4)cc3C(=O)N([C@@H](C)CO)C[C@H]2C)cc1 : 0.238

Form: compound = CNC[C@H]1OCCCC[C@H](C)Oc2ccc(NS(=O)(=O)c3ccc(Cl)cc3)cc2C(=O)N([C@@H](C)CO)C[C@@H]1C ; caspase activation = -0.41

###

Below: a set of entries, each annotated with reported caspase activation.
# testName: A1 inhibitors via caspase activation, primary screen, cell-based, luminescence, HTS, two replicates (AID 2465)
# testConditions: MEF A1-2A-BIM cells, caspase-Glo luminescence, 3 h; stronger effect = higher value; percent of clofoctol response, DMSO zero; concentration not given here
Out of some 24,000 compounds screened, fewer than 10 were called active. The list is a sample of the results.
Write the value in % as a bare number.

C[C@@H]1CN([C@@H](C)CO)C(=O)c2cc(NC(=O)Nc3ccc4c(c3)OCO4)ccc2O[C@@H](C)CCCCO[C@@H]1CN(C)S(=O)(=O)c1cccs1 ... 0.598
Cc1noc(C)c1NC(=O)Nc1ccc2c(c1)CC(=O)N([C@@H](C)CO)C[C@@H](C)[C@H](CN(C)C(=O)NC1CCCCC1)O2 ... -0.291
C[C@@H]1CN([C@H](C)CO)C(=O)c2cc(NS(=O)(=O)c3ccccc3)ccc2O[C@H]1CN(C)S(=O)(=O)c1cccs1 ... -0.323
Cc1noc(C)c1NC(=O)N(C)C[C@@H]1Oc2c(NC(=O)CCCCCC(=O)Nc3ccccc3N)cccc2C(=O)N([C@H](C)CO)C[C@@H]1C ... 1.76
C[C@H](CO)N1C[C@H](C)[C@@H](CN(C)S(=O)(=O)c2cccs2)OCCCC[C@H](C)Oc2ccc(NS(=O)(=O)c3ccccc3)cc2C1=O ... 0.384

Short answer for C[C@@H]1CN([C@@H](C)CO)C(=O)c2cc(NS(=O)(=O)c3cn(C)cn3)ccc2O[C@@H]1CN(C)Cc1ccc(C(=O)Nc2ccccc2N)cc1 : caspase activation was 0.311

caspase activation reading for C[C@@H]1CN([C@H](C)CO)C(=O)Cc2cc(NC(=O)c3ccncc3)ccc2O[C@H]1CN(C)S(=O)(=O)c1cccs1 : 0.361

Query COc1ccc(NC(=O)N(C)C[C@@H]2Oc3ccc(NS(=O)(=O)c4ccc(OC)cc4)cc3CC(=O)N([C@H](C)CO)C[C@H]2C)cc1 yields caspase activation of 0.4
